- Measured on: MMP-2 (Homo sapiens)
- Construct: made in house; provided by Dr. Gregory Goldberg, Washington University
- Sequence (P08253 110-660): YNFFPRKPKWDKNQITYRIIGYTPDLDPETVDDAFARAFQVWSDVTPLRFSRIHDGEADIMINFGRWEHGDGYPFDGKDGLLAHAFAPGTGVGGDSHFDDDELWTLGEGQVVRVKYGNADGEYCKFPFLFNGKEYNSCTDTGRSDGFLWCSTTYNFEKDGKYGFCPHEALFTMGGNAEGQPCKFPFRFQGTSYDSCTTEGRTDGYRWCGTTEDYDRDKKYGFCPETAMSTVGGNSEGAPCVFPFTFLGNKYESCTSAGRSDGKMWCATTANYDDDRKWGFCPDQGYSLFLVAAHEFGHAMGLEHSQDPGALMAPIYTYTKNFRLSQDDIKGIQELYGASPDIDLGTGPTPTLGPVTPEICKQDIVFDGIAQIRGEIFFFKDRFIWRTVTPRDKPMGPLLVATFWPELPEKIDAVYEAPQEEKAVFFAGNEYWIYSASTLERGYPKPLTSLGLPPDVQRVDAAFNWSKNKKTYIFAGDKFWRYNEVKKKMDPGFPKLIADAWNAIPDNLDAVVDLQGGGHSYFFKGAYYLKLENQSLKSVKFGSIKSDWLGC
- Test description: biochemical
- Measurement setup: recombinant human MMP-2, MCA peptide substrate 4 μM, pH 7.5, room temperature; read-out: MMP-2 IC50
Reported property: IC50 (nM)
Response body: numeric value in nM, unit text excluded.

COc1ccc(OC2CCN(c3ccc(S(=O)(=O)C4(C(=O)NO)CCOCC4)cc3)CC2)cc1OC [Example 616] | 3.7

# evaluate next
// query Lab note: record IC50 of COc1ccccc1COC1CCC(Oc2ccc(S(=O)(=O)C3(C(=O)NO)CCOCC3)cc2)C1 (stereo not shown) [Example 740] tested on MMP-2 (Homo sapiens).
// result 175

---

- Measured on: MMP-13 (Homo sapiens, UniProt P45452)
- Construct: made in house; host or cells: baculovirus / insect cells
- Test description: biochemical
- Measurement setup: recombinant human MMP-13, MCA peptide substrate 4 μM, pH 7.5, room temperature; read-out: MMP-13 IC50
pIC50: −log10 of the molar value. Structures can show the parent of a compound that is named as a salt.
Given measured pIC50, output Condition met if it is greater than or equal to 8 and Condition not met if not.

Below, 6 compounds whose answers are already recorded.
O=C(NO)C1(S(=O)(=O)c2ccc(OC3CN(C(c4ccccc4)c4ccccc4)C3)cc2)CCOCC1 [Example 794] | Condition not met
O=C(NO)C1(S(=O)(=O)c2ccc(N3CCC(OCc4ccc(COCC5CCCCC5)cc4)CC3)cc2)CCOCC1 [Example 604] | Condition not met
COc1cccc(NC(=O)N2CCC(C(=O)NO)(S(=O)(=O)c3ccc(Oc4ccc(OC(F)(F)F)cc4)cc3)CC2)c1 [Example 353] | Condition met
O=C(NO)C1(S(=O)(=O)c2ccc(N3CCCCC3CCOCc3ccc(Cl)c(Cl)c3)cc2)CCOCC1 (stereo not shown) [Example 513] | Condition not met
O=C(c1ccc2c(c1)OCCO2)C1CCN(c2ccc(S(=O)(=O)C3(C(=O)NO)CCOCC3)cc2)CC1 [Example 797] | Condition met
C[C@@H]1C[C@H](C)CN(C(=O)C2CCN(c3ccc(S(=O)(=O)C4(C(=O)NO)CCNCC4)cc3)CC2)C1 [Example 240, Monohydrochloride] | Condition not met

For the next question, use this compound.
// query Is reported pIC50 greater than or equal to 8 here: O=C(NO)C1(S(=O)(=O)c2ccc(N3CCC(OCc4ccc(COCC(F)(F)C(F)(F)F)cc4)CC3)cc2)CCOCC1 [Example 565]
// result Condition met

---

- Measured on: MMP-1 (Homo sapiens, UniProt P03956)
- Construct: made in house; host or cells: transfected HT-1080 cells (provided by Dr. Harold Welgus, Washington University)
- Sequence (P03956 100-469): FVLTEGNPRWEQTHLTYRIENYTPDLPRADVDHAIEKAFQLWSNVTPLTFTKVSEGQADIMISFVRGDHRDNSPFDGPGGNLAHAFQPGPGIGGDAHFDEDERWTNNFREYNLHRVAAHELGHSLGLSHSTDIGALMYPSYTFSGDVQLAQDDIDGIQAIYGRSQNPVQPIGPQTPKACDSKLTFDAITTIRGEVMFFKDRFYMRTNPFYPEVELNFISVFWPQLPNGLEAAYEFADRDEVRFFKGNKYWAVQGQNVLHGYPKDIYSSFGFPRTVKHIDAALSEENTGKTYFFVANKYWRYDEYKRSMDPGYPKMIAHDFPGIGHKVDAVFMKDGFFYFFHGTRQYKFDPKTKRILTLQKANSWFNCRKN
- Test description: biochemical
- Measurement setup: recombinant human MMP-1, MCA peptide substrate 4 μM, pH 7.5, room temperature; read-out: MMP-1 IC50
Reported property: IC50

Cc1cccc(N2CCN(c3ccc(S(=O)(=O)C4(C(=O)NO)CCOCC4)cc3)CC2)c1C | > 10 µM
CO[C@@H]1CCN(c2ccc(S(=O)(=O)C3(C(=O)NO)CCOCC3)cc2)C1 | > 10 µM
O=C(NO)C1(S(=O)(=O)c2ccc(N3CCC(Oc4ccc5c(c4)OCO5)CC3)cc2)CCOCC1 | 8.8 µM
O=C(NO)C1(S(=O)(=O)c2ccc(N3CCC(OCc4ccc(OC(F)(F)F)cc4)CC3)cc2)CCOCC1 | > 10 µM
O=C(NO)C1(S(=O)(=O)c2ccc(N3CCc4ccccc4C3)cc2)CCOCC1 | > 10 µM
O=C(NO)C1(S(=O)(=O)c2ccc(Oc3ccc(OC(F)(F)F)cc3)cc2)CCN(C(=S)NCCN2CCCCC2)CC1 | 3 µM
O=C(NCC1CC1)C1CCN(c2ccc(S(=O)(=O)C3(C(=O)NO)CCOCC3)cc2)CC1 | > 10 µM

Alright, here's another compound for you.
// query Look up and report measured IC50 for this entry: CC1CCCC(S(=O)(=O)C2CCN(c3ccc(S(=O)(=O)C4(C(=O)NO)CCOCC4)cc3)CC2)C1 (centres unmarked)
// result > 10 µM
